B1: RTP4 (parent)
chain: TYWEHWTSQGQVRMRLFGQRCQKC

- Variants of: B1
- Test Method Notes: protein stability index of a GFP-peptide fusion (GPS, HEK-293T) (PSI 1-6); higher = more stable;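 also: lentivirally expressed fusions sorted by FACS into six bins by GFP to DsRed ratio, PSI derived from sequencing read proportions per bin multiplied by bin number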
- Condition Context: c terminus: a fixed tail appended
Entries annotated with measured protein stability index
No unit in the answer, please; the number alone is enough.

Known protein stability index results, listed for orientation:
Item Sequence	protein stability index
TYWEHWTSQGQVRMRLFGQRCWKC [Q22W]	4.47
TYWEHWTSQFQVRMRLFGQRCQKC [G10F]	2.53
TYWEHWTSVGQVRMRLFGQRCQKC [Q9V]	2.5
TYWEHWTNQGQVRMRLFGQRCQKC [S8N]	1.32
TYWEHWTSQGQVRMRLFGQICQKC [R20I]	1.03

Query string: What value of measured protein stability index is listed for TYWEHWTSQGQVRMRLFYQRCQKC [G18Y] ?
Result string: 2.41

Query string: Which measured protein stability index value corresponds to TYWIHWTSQGQVRMRLFGQRCQKC [E4I] ?
Result string: 1.77

Query string: Return reported protein stability index; argument: TYWEHWTSQYQVRMRLFGQRCQKC [G10Y]
Result string: 1.92

Query string: What value of protein stability index has been reported for the following variant? TYWEHWTSQAQVRMRLFGQRCQKC [G10A]
Result string: 1.33

Query string: Find the recorded protein stability index belonging to TYWEHWTSQGQVRMRLYGQRCQKC [F17Y] and report it.
Result string: 1.55

Query string: Quick one: protein stability index of QYWEHWTSQGQVRMRLFGQRCQKC [T1Q] ?
Result string: 2.15

Query string: Entry TYWEHWTSQGQVRMRLFGQRCQKD [C24D] has what protein stability index?
Result string: 2.53

Query string: Field request: protein stability index | item: TYFEHWTSQGQVRMRLFGQRCQKC [W3F]
Result string: 1.75

Query string: State the recorded protein stability index for this entry: TYWEHWTSQGQVRMRLFGQRCQDC [K23D]
Result string: 1.79

Query string: I have this variant here, TYWEHWTSQGQVRMRLFGQRCQKM [C24M] , and I need its recorded protein stability index.
Result string: 2.29

Query string: What value of protein stability index has been reported for the following variant? TYWEHWTSQGQVRMRLFGFRCQKC [Q19F]
Result string: 1.66
